TARGET_UNDER_TEST: AR (Homo sapiens, UniProt P10275, T878A)
Construct: into the androgen-dependent PCa cells (LNCaP); endogenous in cells; host or cells: LNCaP-ARR2PB-eGFP
Sequence (P10275 whole entry T878A): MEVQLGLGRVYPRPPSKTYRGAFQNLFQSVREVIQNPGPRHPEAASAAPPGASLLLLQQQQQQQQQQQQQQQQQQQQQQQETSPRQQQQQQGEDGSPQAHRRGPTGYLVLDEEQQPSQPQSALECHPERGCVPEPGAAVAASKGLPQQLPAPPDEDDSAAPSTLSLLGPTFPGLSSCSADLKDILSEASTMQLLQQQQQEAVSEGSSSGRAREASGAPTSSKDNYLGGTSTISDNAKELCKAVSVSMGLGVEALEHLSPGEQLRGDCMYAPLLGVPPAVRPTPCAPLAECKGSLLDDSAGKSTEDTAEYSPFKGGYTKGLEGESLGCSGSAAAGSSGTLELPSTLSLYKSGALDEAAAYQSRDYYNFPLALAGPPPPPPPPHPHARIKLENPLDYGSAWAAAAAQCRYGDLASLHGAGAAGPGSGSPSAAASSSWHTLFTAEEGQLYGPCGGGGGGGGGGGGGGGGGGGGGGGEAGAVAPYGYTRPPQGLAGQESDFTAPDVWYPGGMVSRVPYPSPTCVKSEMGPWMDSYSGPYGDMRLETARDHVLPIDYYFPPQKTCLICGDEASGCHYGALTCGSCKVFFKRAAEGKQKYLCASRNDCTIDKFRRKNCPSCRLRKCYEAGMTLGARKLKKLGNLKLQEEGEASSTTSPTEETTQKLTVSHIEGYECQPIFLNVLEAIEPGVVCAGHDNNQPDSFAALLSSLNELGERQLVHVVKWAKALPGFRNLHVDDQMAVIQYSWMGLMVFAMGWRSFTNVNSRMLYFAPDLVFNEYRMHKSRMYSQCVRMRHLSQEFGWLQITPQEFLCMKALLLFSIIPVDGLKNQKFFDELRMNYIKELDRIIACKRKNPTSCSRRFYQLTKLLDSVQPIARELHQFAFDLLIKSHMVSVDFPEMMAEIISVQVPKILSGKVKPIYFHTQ
ASSAY: AR transcriptional activity, LNCaP-ARR2PB-eGFP reporter cells
Format: cell-based
RECORDED_CONDITIONS: read-out: IC50 AR transcriptional activities
READOUT_TYPE: pIC50
As a rule, pIC50 stands for the negative log10 of the concentration, concentration in M.

Below, each entry is followed by its recorded pIC50 result.
COMPOUND	TARGET_UNDER_TEST	pIC50
COc1cccc(-c2cc(C(=O)Nc3nc(CC(C)=C(F)F)ns3)oc2C)c1	AR (Homo sapiens, UniProt P10275, T878A)	4.45
CC(Cc1nsc(NC(=O)c2cc(-c3cccc(C#N)c3)oc2C(F)(F)F)n1)N1CCOCC1 (stereo not shown)	AR (Homo sapiens, UniProt P10275, T878A)	5.12
CC(O)(Cc1nsc(NC(=O)c2csc(-c3cccc(C(F)(F)F)c3)c2)n1)C(F)(F)F (stereo not shown)	AR (Homo sapiens, UniProt P10275, T878A)	4.48
CC(=O)Cc1nsc(NC(=O)c2cc(-c3cccc(OC(F)(F)F)c3)sc2C)n1	AR (Homo sapiens, UniProt P10275, T878A)	4.60
Cc1oc(C(=O)Nc2nc(CC(C)(O)C(F)(F)F)ns2)cc1-c1cccc(C(F)(F)F)c1 (stereo not shown)	AR (Homo sapiens, UniProt P10275, T878A)	4.50
Cc1sc(-c2cccc(C(F)(F)F)c2)cc1C(=O)Nc1nc(CC(C)(F)F)ns1	AR (Homo sapiens, UniProt P10275, T878A)	4.54
Cc1oc(C(=O)Nc2nc(CC(C)N3CCCCC3)ns2)cc1-c1cccc(C#N)c1 (stereo not shown)	AR (Homo sapiens, UniProt P10275, T878A)	4.85
CN(C)Cc1nsc(NC(=O)c2csc(-c3cccc(C#N)c3)c2)n1	AR (Homo sapiens, UniProt P10275, T878A)	4.60

Which pIC50 value belongs to CC(=O)Cc1nsc(NC(=O)c2cc(-c3cccc(OC(F)(F)F)c3)co2)n1 ?
4.94

Which pIC50 value belongs to COc1cccc(-c2cc(C(=O)Nc3nc(CN4CCOCC4)ns3)c(C(F)(F)F)o2)c1 ?
5.66

Which pIC50 value belongs to O=C(Nc1nc(CCl)ns1)c1csc(-c2cccc(C(F)(F)F)c2)c1 ?
4.67

Which pIC50 value belongs to Cc1oc(-c2cccc(C(F)(F)F)c2)cc1C(=O)Nc1nc(CC(C)N2CCCC2)ns1 (stereo not shown) ?
6.64

Which pIC50 value belongs to Cc1sc(-c2cccc(OC(F)F)c2)cc1C(=O)Nc1nc(CN2CCOCC2)ns1 ?
4.88
